target: mVDAC1 K236A (Mus musculus, UniProt Q60932, K249A); assay: Thermal denaturation; format: binding; conditions: small molecule 1 mM in DMF; mean ± SEM n=3
Sequence (Q60932 14-296 K249A): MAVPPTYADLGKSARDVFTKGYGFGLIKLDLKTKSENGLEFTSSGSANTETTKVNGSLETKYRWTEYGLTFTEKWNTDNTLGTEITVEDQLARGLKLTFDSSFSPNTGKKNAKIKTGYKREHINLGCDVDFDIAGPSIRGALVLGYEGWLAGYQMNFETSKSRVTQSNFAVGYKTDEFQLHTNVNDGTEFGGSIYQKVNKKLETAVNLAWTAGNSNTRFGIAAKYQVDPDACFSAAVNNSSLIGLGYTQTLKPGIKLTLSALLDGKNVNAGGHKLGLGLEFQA
Property: Inflection temperature T(i), K236A; scope: individual compounds
Write down the numeric answer in °C and omit the unit.

1. CC(=O)N(c1nc(COC(=O)c2ccsc2)cs1)c1ccccc1F = 57.9
2. Cc1ccc(C(=O)OCC(=O)N=c2sccn2Cc2ccccc2Cl)s1 = 57.0
3. O=C(CC(O)(c1nc2ccccc2s1)C(F)(F)F)c1cccc(Br)c1 (stereo not shown) = 57.3

Now consider a different compound.
Incoming: # value lookup — system mVDAC1 K236A (Mus musculus, UniProt Q60932, K249A), readout Inflection temperature T(i), K236A, item O=C1C(=Cc2ccc(Cl)cc2)CSc2ccccc21
Outgoing: 57.9

---

target: mVDAC1 N238R (Mus musculus, UniProt Q60932, N251R); test: Thermal denaturation; assay type: binding; conditions: small molecule 1 mM in DMF; mean ± SEM n=3
QUANTITY NAME: Inflection temperature T(i), N238R (°C)
Give the value, in units of °C, as a plain number.

Before answering, review these 3 worked examples.
1. Cc1ccc(C(=O)OCC(=O)N=c2sccn2Cc2ccccc2Cl)s1 [VA-C6] = 61.8
2. CC(=O)N(c1nc(COC(=O)c2ccsc2)cs1)c1ccccc1F [VA-D10] = 63.1
3. O=C(CC(O)(c1nc2ccccc2s1)C(F)(F)F)c1cccc(Br)c1 (stereo not shown) [VA-C1] = 62.5

Now consider the entry below.
Incoming: Would you kindly share the measured Inflection temperature T(i), N238R for O=C1C(=Cc2ccc(Cl)cc2)CSc2ccccc21 [VA-D11] ?
Outgoing: 63.1

---

The reader will find reported Temperature denaturation inflection point (Ti) shift values listed item by item below.
biological target: UniProt Q60932; experiment: Thermal denaturation; assay type: binding; details: mVDAC1 0.9 mg/mL in LDAO; VA molecule 1 mM vs DMF 0.5%; mean ± SEM n=3

Known Temperature denaturation inflection point (Ti) shift results, listed for orientation:
1) O=C(CC(O)(c1nc2ccccc2s1)C(F)(F)F)c1cccc(Br)c1 (stereo not shown) = +4.6 ± 0.1 °C
2) Cc1ccc(C(=O)OCC(=O)N=c2sccn2Cc2ccccc2Cl)s1 = +4.6 ± 0.1 °C
3) O=C1C(=Cc2ccc(Cl)cc2)CSc2ccccc21 = +4.7 ± 0.1 °C

Then this compound:
Incoming: Need Temperature denaturation inflection point (Ti) shift, item CC(=O)N(c1nc(COC(=O)c2ccsc2)cs1)c1ccccc1F
Outgoing: +4.9 ± 0.1 °C

---

Inflection temperature T(i), F18A values, listed per item
target: mVDAC1 F18A (Mus musculus, UniProt Q60932, F31A); experiment: Thermal denaturation; format: binding; details: small molecule 1 mM in DMF; mean ± SEM n=3
Sequence (Q60932 14-296 F31A): as the sequence (Q60932 14-296 K249A) above, with F18A, A236K counted along it
Report only the number, with the unit °C understood.

Recorded results for 3 compounds are shown here.
1. CC(=O)N(c1nc(COC(=O)c2ccsc2)cs1)c1ccccc1F [VA-D10] = 57.3
2. Cc1ccc(C(=O)OCC(=O)N=c2sccn2Cc2ccccc2Cl)s1 [VA-C6] = 58.1
3. O=C1C(=Cc2ccc(Cl)cc2)CSc2ccccc21 [VA-D11] = 57.2

Now let's try a different one.
Incoming: Can you look up the measured Inflection temperature T(i), F18A of O=C(CC(O)(c1nc2ccccc2s1)C(F)(F)F)c1cccc(Br)c1 (stereo not shown) [VA-C1] for me?
Outgoing: 58.0
